# ASSAY_PROTOCOL: systemic clearance in dogs
# APPLIED_CONDITIONS: dog, in vivo, after a single 5 mg/kg dose, read-out: systemic clearance (ClT) in dogs (converted)

| INPUT_SMILES | clearance |
| --- | --- |
| CN(C)c1cc(NC(=O)CNC(C)(C)C)c(O)c2c1C[C@H]1C[C@H]3[C@H](N(C)C)C(O)=C(C(N)=O)C(=O)[C@@]3(O)C(O)=C1C2=O | ~4.33 mL/min/kg |

* * *

# ASSAY_PROTOCOL: oral bioavailability of encapsulated microparticulate (100 mg) enteric coated formulation (Example 3)
# Design: species or system cynomolgus monkeys
# APPLIED_CONDITIONS: male, cynomolgus monkey, in vivo, po, 16 mg/kg, t1/2

| MOLECULE | half-life, h |
| --- | --- |
| CN(C)c1cc(NC(=O)CNC(C)(C)C)c(O)c2c1C[C@H]1C[C@H]3[C@H](N(C)C)C(O)=C(C(N)=O)C(=O)[C@@]3(O)C(O)=C1C2=O [Tigecycline] | 12.1 |

* * *

# ASSAY_PROTOCOL: pharmacokinetics after single oral (gavage) and intravenous dose in 0.9% saline (Example 2)
# Parameters: species or system cynomolgus monkeys
# APPLIED_CONDITIONS: male, cynomolgus monkey, in vivo, po, 15 mg/kg, Plasma Concentrations
VALUE_TYPE: concentration at 8 hr

| COMPOUND | OBSERVED_MEASUREMENT |
| --- | --- |
| CN(C)c1cc(NC(=O)CNC(C)(C)C)c(O)c2c1C[C@H]1C[C@H]3[C@H](N(C)C)C(O)=C(C(N)=O)C(=O)[C@@]3(O)C(O)=C1C2=O [Tigecycline] | < 100 ng/mL |

* * *

# ASSAY_PROTOCOL: pharmacokinetics after single oral (gavage) and intravenous dose in 0.9% saline (Example 2)
# Parameters: species or system cynomolgus monkeys
# APPLIED_CONDITIONS: male, cynomolgus monkey, in vivo, po, 15 mg/kg, Plasma Concentrations
VALUE_TYPE: concentration at 2 hr

| INPUT_SMILES | VALUE_TYPE | OBSERVED_MEASUREMENT |
| --- | --- | --- |
| CN(C)c1cc(NC(=O)CNC(C)(C)C)c(O)c2c1C[C@H]1C[C@H]3[C@H](N(C)C)C(O)=C(C(N)=O)C(=O)[C@@]3(O)C(O)=C1C2=O | concentration at 2 hr | 131 ng/mL |

* * *

# ASSAY_PROTOCOL: pharmacokinetics after single oral (gavage) and intravenous dose in 0.9% saline (Example 2)
# Set-up: species or system cynomolgus monkeys
# APPLIED_CONDITIONS: male, cynomolgus monkey, in vivo, po, 15 mg/kg, Plasma Concentrations, Mean
VALUE_TYPE: concentration at 48 h (ng/mL)

| INPUT_SMILES | OBSERVED_MEASUREMENT |
| --- | --- |
| CN(C)c1cc(NC(=O)CNC(C)(C)C)c(O)c2c1C[C@H]1C[C@H]3[C@H](N(C)C)C(O)=C(C(N)=O)C(=O)[C@@]3(O)C(O)=C1C2=O | 0 |

* * *

# ASSAY_PROTOCOL: pharmacokinetics after single oral (gavage) and intravenous dose in 0.9% saline (Example 2)
# Design: species or system cynomolgus monkeys
# APPLIED_CONDITIONS: male, cynomolgus monkey, in vivo, po, 15 mg/kg, Plasma Concentrations, Mean
VALUE_TYPE: concentration at 0 h (ng/mL)

| INPUT_SMILES | OBSERVED_MEASUREMENT |
| --- | --- |
| CN(C)c1cc(NC(=O)CNC(C)(C)C)c(O)c2c1C[C@H]1C[C@H]3[C@H](N(C)C)C(O)=C(C(N)=O)C(=O)[C@@]3(O)C(O)=C1C2=O | 0 |
